The origin of these recorded values is the supplement of paper PMC10307832.

I'd appreciate it if you could supply relative viability values for the items below.
# Tested on: NCI-H647
# PROCEDURE SUMMARY: relative viability (nuclei count vs DMSO), 5 days (fraction); higher = more cells survive
# PROTOCOL CONDITIONS: first compound 0.08 µM

Known relative viability results, listed for orientation:
• Oc1nc(-c2ccc(C(F)(F)F)cc2)nc2c1CSCC2 [XAV939] + CC(=O)c1c(C)c2cnc(Nc3ccc(N4CCNCC4)cn3)nc2n(C2CCCC2)c1=O [Palbociclib] (partner 0.5 µM) = 0.406
• C=C1C(=O)O[C@@H](CCCCCCCC)[C@@H]1C(=O)O [C-75] + N=C(N)NC(=N)NCCc1ccccc1 [Phenformin] (partner 250 µM) = 0.52

Query: Look up relative viability for this compound: C=C1C(=O)O[C@@H](CCCCCCCC)[C@@H]1C(=O)O [C-75] + Cc1nc(Nc2ncc(C(=O)Nc3c(C)cccc3Cl)s2)cc(N2CCN(CCO)CC2)n1 [Dasatinib] (partner 0.075 µM)
Response: 0.227
